Reference for the values: paper PMC3472974

Measured Target: hNav1.2 channels (Homo sapiens, UniProt Q99250)
Construct: expressed in transfected cells; host or cells: CHO-K1 (ATCC CCL-61)
Sequence (Q99250 whole entry): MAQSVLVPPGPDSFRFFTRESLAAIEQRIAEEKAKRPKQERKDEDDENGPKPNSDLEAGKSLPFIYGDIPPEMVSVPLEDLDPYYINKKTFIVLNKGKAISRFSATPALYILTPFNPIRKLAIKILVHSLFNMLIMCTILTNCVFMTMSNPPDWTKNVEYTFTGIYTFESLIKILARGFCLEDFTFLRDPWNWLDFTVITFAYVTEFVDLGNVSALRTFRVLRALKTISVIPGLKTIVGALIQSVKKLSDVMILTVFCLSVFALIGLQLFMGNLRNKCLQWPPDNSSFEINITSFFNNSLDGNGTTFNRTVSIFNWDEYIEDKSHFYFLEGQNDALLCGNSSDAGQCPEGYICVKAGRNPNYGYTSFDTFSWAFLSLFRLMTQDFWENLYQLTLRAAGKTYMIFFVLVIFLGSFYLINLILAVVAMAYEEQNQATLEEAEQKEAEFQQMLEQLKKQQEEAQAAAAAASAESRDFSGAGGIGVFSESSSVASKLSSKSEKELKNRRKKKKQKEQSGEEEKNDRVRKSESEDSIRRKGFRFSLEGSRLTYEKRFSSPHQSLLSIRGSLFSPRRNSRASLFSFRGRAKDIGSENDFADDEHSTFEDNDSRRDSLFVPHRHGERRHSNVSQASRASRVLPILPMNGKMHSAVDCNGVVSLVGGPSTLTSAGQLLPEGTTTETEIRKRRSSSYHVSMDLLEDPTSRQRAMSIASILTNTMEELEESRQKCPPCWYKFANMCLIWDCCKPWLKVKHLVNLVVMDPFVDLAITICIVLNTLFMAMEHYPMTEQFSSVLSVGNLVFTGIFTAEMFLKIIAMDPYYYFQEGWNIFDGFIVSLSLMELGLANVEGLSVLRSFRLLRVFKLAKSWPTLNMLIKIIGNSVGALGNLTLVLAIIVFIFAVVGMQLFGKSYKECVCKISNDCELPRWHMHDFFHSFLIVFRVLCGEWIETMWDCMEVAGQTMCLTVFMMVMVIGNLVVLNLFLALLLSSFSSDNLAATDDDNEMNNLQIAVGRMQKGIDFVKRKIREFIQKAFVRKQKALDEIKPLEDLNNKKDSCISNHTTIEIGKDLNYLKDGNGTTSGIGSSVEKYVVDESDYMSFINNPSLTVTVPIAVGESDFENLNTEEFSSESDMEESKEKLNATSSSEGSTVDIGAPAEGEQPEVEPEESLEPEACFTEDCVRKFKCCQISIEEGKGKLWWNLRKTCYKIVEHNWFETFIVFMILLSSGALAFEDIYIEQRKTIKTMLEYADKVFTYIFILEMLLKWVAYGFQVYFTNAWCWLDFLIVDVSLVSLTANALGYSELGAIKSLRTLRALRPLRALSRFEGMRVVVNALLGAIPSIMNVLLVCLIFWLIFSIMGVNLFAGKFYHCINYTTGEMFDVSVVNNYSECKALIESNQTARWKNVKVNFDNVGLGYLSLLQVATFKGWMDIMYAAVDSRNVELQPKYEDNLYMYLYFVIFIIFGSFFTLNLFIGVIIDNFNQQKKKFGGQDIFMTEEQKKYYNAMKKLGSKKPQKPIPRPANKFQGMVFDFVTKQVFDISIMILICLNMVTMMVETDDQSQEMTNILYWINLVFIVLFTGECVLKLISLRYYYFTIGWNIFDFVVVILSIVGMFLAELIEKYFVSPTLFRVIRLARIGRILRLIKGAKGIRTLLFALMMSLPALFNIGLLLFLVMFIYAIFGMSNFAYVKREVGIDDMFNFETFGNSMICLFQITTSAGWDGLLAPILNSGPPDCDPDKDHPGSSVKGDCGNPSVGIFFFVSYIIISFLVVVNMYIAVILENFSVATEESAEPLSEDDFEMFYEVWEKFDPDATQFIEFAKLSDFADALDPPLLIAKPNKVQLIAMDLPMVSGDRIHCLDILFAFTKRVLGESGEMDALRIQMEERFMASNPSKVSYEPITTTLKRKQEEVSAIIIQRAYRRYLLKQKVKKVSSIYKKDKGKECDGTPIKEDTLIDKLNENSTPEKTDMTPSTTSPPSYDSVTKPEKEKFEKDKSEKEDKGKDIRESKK
Assay Summary: Patch-clamp (PatchXpress 7000A) on transfected CHO cells, hNav1.2
Assay type: cell-based
Reported Conditions: Tonic Experiment, CHO cells, n = 6, mean ± SEM; 2-H exposure limited to 3 min
Outcome Measure: pIC50
pIC50 is a log-scale quantity: -log10 of the concentration expressed in molar.

Requested read-out: pIC50. Entry: CCCCCC(C)=O [2-H, 2-heptanone]
2.04

* * *

Test system: isolated rat sciatic nerve
Assay Summary: tissue or blood
Reported Conditions: Table 3, 3.41 mg/mL; unit not given in Table 3, s
Marks after values point to notes of the source that are not given here.
Outcome Measure: IT0

As a guide, the following entries are already answered.
{"columns": ["Compound", "Measured Target", "Readout Value"],
 "data": [
  ["CCCCC(=O)CC [3-heptanone]", "isolated rat sciatic nerve", "258.00±11.47^b seconds"],
  ["CCCC(=O)CCC [4-heptanone]", "isolated rat sciatic nerve", "283.57±16.89^b seconds"]
]}

Proceed to the following item.
Requested read-out: IT0. Entry: CCCCCC(C)=O [2-H, 2-heptanone]
221.88±7.32^a seconds
